Test: activity coefficient (dimensionless); of the first substance listed, at infinite dilution; xn = mol fraction of the nth substance listed
Settings: 333.35 K; Liquid; Chromatography; x1 = 0
activity coefficient for assorted compounds

[
  {
    "compound": "C1CCCCC1 [cyclohexane] + CCCC[N+](C)(C)C.O=S(=O)([N-]S(=O)(=O)C(F)(F)F)C(F)(F)F",
    "activity coefficient": 3.37
  },
  {
    "compound": "CC#N [acetonitrile] + CCCC[N+](C)(C)C.O=S(=O)([N-]S(=O)(=O)C(F)(F)F)C(F)(F)F",
    "activity coefficient": 0.47
  },
  {
    "compound": "CN1CCCC1=O [N-methylpyrrolidone] + CCCC[N+](C)(C)C.O=S(=O)([N-]S(=O)(=O)C(F)(F)F)C(F)(F)F",
    "activity coefficient": 60.4
  },
  {
    "compound": "CC(C)O [propan-2-ol] + CCCC[N+](C)(C)C.O=S(=O)([N-]S(=O)(=O)C(F)(F)F)C(F)(F)F",
    "activity coefficient": 1.67
  }
]

====

activity coefficient for assorted compounds
Experiment: activity coefficient (dimensionless); of the first substance listed, at infinite dilution; xn = mol fraction of the nth substance listed
Settings: 354.05 K; Liquid; Chromatography; x1 = 0

[
  {
    "compound": "CC(C)(C)O [2-methylpropan-2-ol] + CCCC[N+](C)(C)C.O=S(=O)([N-]S(=O)(=O)C(F)(F)F)C(F)(F)F",
    "activity coefficient": 1.34
  },
  {
    "compound": "CCC(C)O (configuration not stated) [butan-2-ol] + CCCC[N+](C)(C)C.O=S(=O)([N-]S(=O)(=O)C(F)(F)F)C(F)(F)F",
    "activity coefficient": 1.7
  },
  {
    "compound": "CCCc1ccccc1 [propylbenzene] + CCCC[N+](C)(C)C.O=S(=O)([N-]S(=O)(=O)C(F)(F)F)C(F)(F)F",
    "activity coefficient": 3.79
  },
  {
    "compound": "CC(C)O [propan-2-ol] + CCCC[N+](C)(C)C.O=S(=O)([N-]S(=O)(=O)C(F)(F)F)C(F)(F)F",
    "activity coefficient": 1.37
  },
  {
    "compound": "CCCCCO [pentan-1-ol] + CCCC[N+](C)(C)C.O=S(=O)([N-]S(=O)(=O)C(F)(F)F)C(F)(F)F",
    "activity coefficient": 2.72
  },
  {
    "compound": "CCCCCCCO [heptan-1-ol] + CCCC[N+](C)(C)C.O=S(=O)([N-]S(=O)(=O)C(F)(F)F)C(F)(F)F",
    "activity coefficient": 3.47
  },
  {
    "compound": "CCCCCCO [hexan-1-ol] + CCCC[N+](C)(C)C.O=S(=O)([N-]S(=O)(=O)C(F)(F)F)C(F)(F)F",
    "activity coefficient": 3.58
  }
]

====

Assay: activity coefficient (dimensionless); of the first substance listed, at infinite dilution; xn = mol fraction of the nth substance listed
Details: 333.25 K; Liquid; Chromatography; x1 = 0
Please use Met for activity coefficient under 2 and Not met for everything else, ties included.

[
  {
    "compound": "CCC=O [propanal] + CCCC[N+](C)(C)C.O=S(=O)([N-]S(=O)(=O)C(F)(F)F)C(F)(F)F",
    "discrete_label": "Met"
  },
  {
    "compound": "CCCCC=O [pentanal] + CCCC[N+](C)(C)C.O=S(=O)([N-]S(=O)(=O)C(F)(F)F)C(F)(F)F",
    "discrete_label": "Met"
  },
  {
    "compound": "CCCCc1ccccc1 [butylbenzene] + CCCC[N+](C)(C)C.O=S(=O)([N-]S(=O)(=O)C(F)(F)F)C(F)(F)F",
    "discrete_label": "Not met"
  },
  {
    "compound": "CCO [ethanol] + CCCC[N+](C)(C)C.O=S(=O)([N-]S(=O)(=O)C(F)(F)F)C(F)(F)F",
    "discrete_label": "Met"
  },
  {
    "compound": "C=CCCCCCCCCC [1-undecene] + CCCC[N+](C)(C)C.O=S(=O)([N-]S(=O)(=O)C(F)(F)F)C(F)(F)F",
    "discrete_label": "Not met"
  },
  {
    "compound": "C1=CCCCC1 [cyclohexene] + CCCC[N+](C)(C)C.O=S(=O)([N-]S(=O)(=O)C(F)(F)F)C(F)(F)F",
    "discrete_label": "Not met"
  },
  {
    "compound": "CO [methanol] + CCCC[N+](C)(C)C.O=S(=O)([N-]S(=O)(=O)C(F)(F)F)C(F)(F)F",
    "discrete_label": "Met"
  },
  {
    "compound": "C=CCCCCC [1-heptene] + CCCC[N+](C)(C)C.O=S(=O)([N-]S(=O)(=O)C(F)(F)F)C(F)(F)F",
    "discrete_label": "Not met"
  },
  {
    "compound": "CC(C)(C)O [2-methylpropan-2-ol] + CCCC[N+](C)(C)C.O=S(=O)([N-]S(=O)(=O)C(F)(F)F)C(F)(F)F",
    "discrete_label": "Met"
  },
  {
    "compound": "C=CCCCCCC [oct-1-ene] + CCCC[N+](C)(C)C.O=S(=O)([N-]S(=O)(=O)C(F)(F)F)C(F)(F)F",
    "discrete_label": "Not met"
  },
  {
    "compound": "ClC(Cl)Cl [trichloromethane] + CCCC[N+](C)(C)C.O=S(=O)([N-]S(=O)(=O)C(F)(F)F)C(F)(F)F",
    "discrete_label": "Met"
  },
  {
    "compound": "CCCCCCCCC [nonane] + CCCC[N+](C)(C)C.O=S(=O)([N-]S(=O)(=O)C(F)(F)F)C(F)(F)F",
    "discrete_label": "Not met"
  },
  {
    "compound": "C1=CCCC=C1 [1,3-cyclohexadiene] + CCCC[N+](C)(C)C.O=S(=O)([N-]S(=O)(=O)C(F)(F)F)C(F)(F)F",
    "discrete_label": "Not met"
  },
  {
    "compound": "CCCCCCCCCCC [undecane] + CCCC[N+](C)(C)C.O=S(=O)([N-]S(=O)(=O)C(F)(F)F)C(F)(F)F",
    "discrete_label": "Not met"
  },
  {
    "compound": "CCCCCCCCCCCC [dodecane] + CCCC[N+](C)(C)C.O=S(=O)([N-]S(=O)(=O)C(F)(F)F)C(F)(F)F",
    "discrete_label": "Not met"
  }
]

The reported measurements were obtained from the NIST ThermoML archive (doi:10.1021/je050440b).
